Just for reference, patent US20150132342A1 is where these values come from.

Test system: HepG2 cells
Experiment: MTT assay in HepG2 cells
Type: cell-based
Conditions: compounds tested at 10 μM; normalized with OD570-650 of vehicle treatment; in % (unit assumed)
value.type: HepG2 MT
Just the number.

Worked examples follow.
[
  {
    "item.smiles": "CCOC(=O)c1nc(Nc2cc(Oc3ccccc3Cl)cc([N+](=O)[O-])c2)c2ccccc2n1",
    "value": 107.4
  },
  {
    "item.smiles": "CCNC(=O)c1nc(Nc2cc(Oc3ccccc3)cc([N+](=O)[O-])c2)c2ccccc2n1",
    "value": 107.4
  },
  {
    "item.smiles": "CCOC(=O)c1nc(Nc2cc(Oc3ccc4ccccc4c3)cc([N+](=O)[O-])c2)c2ccccc2n1",
    "value": 111.4
  },
  {
    "item.smiles": "CCOC(=O)c1nc(Nc2cc(Oc3ccccc3C)cc([N+](=O)[O-])c2)c2ccccc2n1",
    "value": 96.7
  }
]

Test system HepG2 cells; read-out HepG2 MT; what value for `CCOC(=O)c1nc(Nc2cc(Oc3ccccc3C(F)(F)F)cc([N+](=O)[O-])c2)c2ccccc2n1` ? 67.1

Proceed to `NC(=O)c1nc(Nc2cc(Oc3ccccc3)cc([N+](=O)[O-])c2)c2ccccc2n1` 78.4

Next compound up: `CCOC(=O)c1nc(Nc2cc(Oc3ccccc3I)cc([N+](=O)[O-])c2)c2ccccc2n1` 93.8

Same lookup for `Nc1cc(Nc2nc(C(=O)O)nc3ccccc23)cc(Oc2ccccc2)c1` , please. 105.0
